- Test system: G. duodenalis BRIS/91/HEPU/1279
- protocolDetails: Giardia dose response assay, assemblage B
- Format: cell-based, Giardia duodenalis
- conditionsUsed: Giardia duodenalis, 24 h, read-out: G. duodenalis IC50 24h, Table S2; 24 h; ±SD; max 10 µM
- Protocol: In these assays, compounds were serially diluted (8–12-point doubling dilutions in technical duplicate) in DMSO control media, with all test wells inoculated with parasites (1.5 × 10^4 parasites for BRIS/91/HEPU/1279 and BRIS/91/HEPU/1279m1, or 3 × 10^3 parasites for BRIS/87/HEPU/713). […] Growth inhibition was calculated as a percentage relative to vehicle controls minus any background as described above and IC50 values were determined using log-linear interpolation as previously described. […]
metric: IC50 (µM)
Number in µM, nothing else.

Check out these entries, answers already filled in.
>>> df
                                   compound                    assayedtarget  testresult
0  COc1ccc(C)cc1N1C(=O)C(c2ccccc2)C(c2nc3ccccc3s2)=C1N (stereo not drawn)  G. duodenalis BRIS/91/HEPU/1279        1.76
1  Cc1cc(-c2cc(C(=O)Nc3ccc(N4CCN(C)CC4)nc3)c3cnn(C(C)C)c3n2)c(C)o1  G. duodenalis BRIS/91/HEPU/1279        0.25

# next compound below
Endpoint output: IC50 of Nc1c(-c2nc(-c3ccccc3)cs2)c2ccccn2c1C(=O)c1ccc2c(c1)OCO2 . Value?
7.64

Sourced from paper PMC9775191
